- assayTarget: Factor D (Homo sapiens (Human))
- assayComment: biochemical
- Type: biochemical
- cond: read-out: IC50
pIC50: −log10 of the molar value.

{"compound": "C=CCOc1ccc2c(NC(=O)N3C4CC4C[C@H]3C(=O)NCc3cccc(Cl)c3F)cn(C(N)=O)c2c1 (stereo partly drawn)", "assayTarget": "Factor D (Homo sapiens (Human))", "pIC50": 7.15}
{"compound": "C[C@@]1(F)C[C@@H](C(=O)NCc2cccc(Cl)c2F)N(C(=O)Cn2cc(C(=O)C(F)(F)F)c3ccccc32)C1", "assayTarget": "Factor D (Homo sapiens (Human))", "pIC50": 7.36}
{"compound": "CC(=O)c1cn(CC(=O)N2C[C@H](F)C[C@H]2C(=O)NCc2cccc(Cl)c2F)c2ccc(O)cc12", "assayTarget": "Factor D (Homo sapiens (Human))", "pIC50": 7.41}

----------
- assayTarget: Factor D (Homo sapiens (Human), UniProt P00746)
- Sequence (P00746 26-253): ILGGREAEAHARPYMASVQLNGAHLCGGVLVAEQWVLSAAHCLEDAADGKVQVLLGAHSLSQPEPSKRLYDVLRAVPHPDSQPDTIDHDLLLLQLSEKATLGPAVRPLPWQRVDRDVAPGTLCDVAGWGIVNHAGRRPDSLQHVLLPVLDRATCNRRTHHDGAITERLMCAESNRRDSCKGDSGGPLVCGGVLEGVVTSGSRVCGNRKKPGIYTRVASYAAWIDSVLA
- assayComment: biochemical
- Format: biochemical
- cond: read-out: IC50

{"compound": "CC1(C)CC[C@@H](C(=O)NCc2cccc(Cl)c2F)N1C(=O)Nc1cn(C(N)=O)c2ccccc12", "assayTarget": "Factor D (Homo sapiens (Human), UniProt P00746)", "unitName": "nM", "IC50": 75}
{"compound": "CO[C@H]1C[C@@H](C(=O)Nc2cccc(OC(F)(F)F)c2)N(C(=O)Nc2cn(C(N)=O)c3ccccc23)C1", "assayTarget": "Factor D (Homo sapiens (Human), UniProt P00746)", "unitName": "nM", "IC50": 2000}
{"compound": "NC(=O)n1cc(NC(=O)N2CCS[C@H]2C(=O)NCc2cnc(Cl)s2)c2ccccc21", "assayTarget": "Factor D (Homo sapiens (Human), UniProt P00746)", "unitName": "nM", "IC50": 400}
{"compound": "NC(=O)c1cn(CC(=O)N2C[C@H](F)C[C@H]2C(=O)Nc2cccc(Cl)c2F)c2ccccc12", "assayTarget": "Factor D (Homo sapiens (Human), UniProt P00746)", "unitName": "nM", "IC50": 2450}
{"compound": "NC(=O)n1cc(NC(=O)N2N=CC[C@H]2C(=O)NCc2cccc(Cl)c2F)c2ccccc21 (single isomer, unassigned)", "assayTarget": "Factor D (Homo sapiens (Human), UniProt P00746)", "unitName": "nM", "IC50": 5}

----------
- assayTarget: Factor D (Homo sapiens (Human), UniProt P00746)
- assayComment: biochemical
- Type: biochemical
- cond: read-out: IC50
Parameter: IC50. Scope: all listed entries.

{"mol": "NC(=O)n1cc(CC(=O)N2[C@@H]3C[C@@H]3C[C@H]2C(=O)N[C@H](CCO)c2cccc(Cl)c2F)c2ccccc21", "IC50 [nM]": 107}
{"mol": "CC(=O)c1cn(CC(=O)N2[C@@H]3C[C@@H]3C[C@H]2C(=O)NCc2cccc(Cl)c2F)c2nnccc12", "IC50 [nM]": 91}
{"mol": "NC(=O)c1nn(CC(=O)N2[C@@H]3C[C@@H]3C[C@H]2C(=O)Nc2cccc(OC(F)F)c2F)c2ccccc12", "IC50 [nM]": 62}

----------
- assayTarget: Factor D (Homo sapiens (Human))
- assayComment: biochemical
- Type: biochemical
- cond: read-out: IC50
pIC50: −log10 of the molar value.
Parameter: pIC50. Scope: all listed entries.

{"mol": "NC[C@H]1CC[C@@H](C(=O)Nc2cccc(OC(F)(F)F)c2)N1C(=O)Nc1cn(C(N)=O)c2ccccc12", "pIC50": 6.52}
{"mol": "CO[C@H]1[C@@H](C(=O)Nc2cccc(OC(F)(F)F)c2F)N(C(=O)Cn2nc(C(C)=O)c3cc(OCc4ncccn4)ccc32)C[C@@H]1F", "pIC50": 8.30}
{"mol": "C[C@@]1(F)C[C@@H](C(=O)NCc2cccc(Cl)c2F)N(C(=O)Nc2cn(C(N)=O)c3ccc(OCCO)cc23)C1", "pIC50": 8.40}
{"mol": "O=C(CO)c1cn(CC(=O)N2[C@@H]3C[C@@H]3C[C@H]2C(=O)NCc2cccc(Cl)c2F)c2ccccc12", "pIC50": 7.60}
{"mol": "CC(=O)c1cn(CC(=O)N2[C@@H]3C[C@@H]3C[C@H]2C(=O)NCc2cccc(Cl)c2F)c2ccncc12", "pIC50": 7.19}
{"mol": "NC(=O)n1cc(NC(=O)N2[C@H]3C[C@@]3(CO)C[C@H]2C(=O)NCc2cccc(Cl)c2F)c2ccccc21", "pIC50": 6.41}
{"mol": "CC[C@H](C)[C@H](NC(=O)[C@@H]1C[C@@H](F)CN1C(=O)Nc1cn(C(N)=O)c2ccccc12)C(=O)OC(C)(C)C", "pIC50": 5.96}

----------
- assayTarget: Factor D (Homo sapiens (Human))
- assayComment: biochemical
- Format: biochemical
- cond: read-out: IC50
observationType: IC50 (nM)

{"compound": "COC(=O)Cc1ccc2c(C(C)=O)cn(CC(=O)N3C[C@H](F)C[C@H]3C(=O)NCc3cccc(Cl)c3F)c2c1", "observationType": "IC50", "unitName": "nM", "measValue": 69}
{"compound": "NC(=O)n1cc(NC(=O)N2C[C@H](F)C[C@H]2C(=O)NC(C(=O)O)c2cccc(Cl)c2)c2ccccc21 (stereo partly shown)", "observationType": "IC50", "unitName": "nM", "measValue": 2000}
{"compound": "CC[C@@H]1CC[C@@H](C(=O)Nc2cccc(OC(F)(F)F)c2)N1C(=O)Nc1cn(C(N)=O)c2ccccc12", "observationType": "IC50", "unitName": "nM", "measValue": 18900}
{"compound": "NC(=O)n1cc(NC(=O)N2CC[C@@H](O)[C@H]2C(=O)NCc2cccc(Cl)c2F)c2ccccc21", "observationType": "IC50", "unitName": "nM", "measValue": 12}
{"compound": "COc1ccc2c(c1)c(C(C)=O)cn2CC(=O)N1C[C@H](F)C[C@H]1C(=O)NCc1cccc(Cl)c1F", "observationType": "IC50", "unitName": "nM", "measValue": 31}
{"compound": "CC[C@@H]1CC[C@@H](C(=O)NCc2cccc(Cl)c2F)N1C(=O)Nc1cn(C(N)=O)c2ccccc12", "observationType": "IC50", "unitName": "nM", "measValue": 600}
{"compound": "COC(=O)c1ccc2c(C(C)=O)nn(CC(=O)N3[C@@H]4C[C@@H]4C[C@H]3C(=O)NCc3cccc(Cl)c3F)c2c1", "observationType": "IC50", "unitName": "nM", "measValue": 18}
{"compound": "CC(=O)c1cn(CC(=O)N2C[C@@](F)(CN)C[C@H]2C(=O)NCc2cccc(Cl)c2F)c2ccccc12", "observationType": "IC50", "unitName": "nM", "measValue": 28}
{"compound": "NC(=O)n1cc(CC(=O)N2C[C@H](F)[C@@H](N)[C@H]2C(=O)NCc2cccc(Cl)c2F)c2ccccc21", "observationType": "IC50", "unitName": "nM", "measValue": 43}
{"compound": "NC(=O)n1cc(NC(=O)N2C[C@@](F)(CO)C[C@H]2C(=O)NCc2cccc(Cl)c2F)c2ccccc21", "observationType": "IC50", "unitName": "nM", "measValue": 20}

----------
Parameter: IC50. Scope: all listed entries.
- assayTarget: Factor D (Homo sapiens (Human), UniProt P00746)
- assayComment: biochemical
- Type: biochemical
- cond: read-out: IC50
observationType: IC50 (nM)

{"compound": "COC[C@@]12C[C@@H](C(=O)NCc3cccc(Cl)c3F)N(C(=O)Cc3cn(C(N)=O)c4ccccc34)[C@@H]1C2", "unitName": "nM", "measValue": 103}
{"compound": "NC(=O)n1cc(NC(=O)N2CCC3C[C@@]32C(=O)Nc2cccc(OC(F)(F)F)c2)c2ccccc21 (some centres unmarked)", "unitName": "nM", "measValue": 13300}
{"compound": "CO[C@H]1[C@@H](C(=O)NC2(c3ccc(Cl)cc3)CC2)N(C(=O)Cn2cc(C(C)=O)c3ccccc32)C[C@@H]1F", "unitName": "nM", "measValue": 865}
{"compound": "NC(=O)c1nn(CC(=O)N2[C@@H]3C[C@@H]3C[C@H]2C(=O)Nc2cccc(Br)c2F)c2cnccc12", "unitName": "nM", "measValue": 19}
{"compound": "NC(=O)n1cc(NC(=O)N2C3CC3C[C@H]2C(=O)Nc2ccncc2F)c2ccccc21 (some centres unmarked)", "unitName": "nM", "measValue": 550}

----------
- assayTarget: UniProtKB P00746
- assayComment: biochemical
- Assay type: biochemical
- cond: read-out: IC50
pIC50: −log10 of the molar value.
Parameter: pIC50. Scope: all listed entries.

{"mol": "CO[C@H]1[C@@H](C(=O)NCc2cccc(Cl)c2F)N(C(=O)Cn2nc(C(C)=O)c3ccccc32)C[C@@H]1F", "assayTarget": "UniProtKB P00746", "pIC50": 7.80}
{"mol": "NC(=O)c1nn(CC(=O)N2[C@@H]3C[C@@H]3C[C@H]2C(=O)Nc2cccc(OC(F)(F)F)c2F)c2nnccc12", "assayTarget": "UniProtKB P00746", "pIC50": 6.85}
{"mol": "NC(=O)n1cc(NC(=O)N2[C@@H]3C[C@@H]3C[C@H]2C(=O)N[C@H](CO)c2cccc(Br)c2)c2ccccc21", "assayTarget": "UniProtKB P00746", "pIC50": 7.39}
{"mol": "NC(=O)c1cn(CC(=O)N2C[C@H](F)C[C@H]2C(=O)NCc2cccc(Br)c2F)c2ccccc12", "assayTarget": "UniProtKB P00746", "pIC50": 7.66}
{"mol": "CC(=O)c1cn(CC(=O)N2[C@@H]3C[C@@H]3C[C@H]2C(=O)NCc2cccc(Cl)c2F)c2ncccc12", "assayTarget": "UniProtKB P00746", "pIC50": 7.22}
{"mol": "CC(=O)c1cn(CC(=O)N2[C@@H]3C[C@@H]3C[C@H]2C(=O)NCc2cccc(Cl)c2F)c2cnccc12", "assayTarget": "UniProtKB P00746", "pIC50": 7.48}
{"mol": "CO[C@H]1[C@@H](C(=O)NCc2cccc(Cl)c2F)N(C(=O)Cn2nc(C(N)=O)c3cnccc32)C[C@@H]1F", "assayTarget": "UniProtKB P00746", "pIC50": 7.44}
{"mol": "[N-]=[N+]=NC[C@H]1CC[C@@H](C(=O)Nc2cccc(OC(F)(F)F)c2)N1C(=O)Nc1cn(C(N)=O)c2ccccc12", "assayTarget": "UniProtKB P00746", "pIC50": 6.40}
{"mol": "COC1CCN(Cc2cc(Cl)c(F)c(CNC(=O)[C@@H]3C[C@@H](F)CN3C(=O)Nc3cn(C(N)=O)c4ccccc34)c2)CC1", "assayTarget": "UniProtKB P00746", "pIC50": 5.95}
{"mol": "Cc1ccc2c(NC(=O)N3CCC[C@H]3C(=O)Nc3cccc(OC(F)(F)F)c3)cn(C(N)=O)c2c1", "assayTarget": "UniProtKB P00746", "pIC50": 5.80}
{"mol": "COC(=O)c1ccc2c(c1)c(C(C)=O)cn2CC(=O)N1[C@@H]2C[C@@H]2C[C@H]1C(=O)NCc1cccc(Cl)c1F", "assayTarget": "UniProtKB P00746", "pIC50": 6.63}

Entry source: patent US9085555B2
